Would you kindly list growth inhibition for each of these compounds?
test: NCI Yeast Anticancer Drug Screen. Data for the rad50EPP+ strain (AID 151);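 further: 0% = growth of vehicle-treated control cultures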; conditions: S. cerevisiae rad50 mutant strain, at 3.7 µM, hits give high values
About 79,000 compounds went through this panel and 15% of them were active in at least one assay; those are over-represented in the sample as a whole.
Give the number; % is assumed, so skip it.

Lab book: growth inhibition of COc1ccc2c3c1OC(C)C31CC(=O)CCC1CC2 (centres undefined) noted as 1

Lab book: growth inhibition of CCc1c(Cl)c(C)c(Cl)c(O)c1Cl noted as 0

Lab book: growth inhibition of O=C1c2cccc3cccc(c23)C(=O)N1CCNCCN1C(=O)c2cccc3cccc(c23)C1=O noted as 0

Lab book: growth inhibition of Cc1ccc(NC(Nc2ccc(C)cc2C)=C(C(Cl)=C(Cl)Cl)[N+](=O)[O-])c(C)c1 noted as 10

Lab book: growth inhibition of CCN(CC)CCNc1ccc2ncn3c4ccc(O)cc4c(=O)c1c23 noted as 6

Lab book: growth inhibition of CC(CN(C)C)C(=O)/C=C/c1ccc(Cl)c(Cl)c1 (centres undefined) noted as 10

Lab book: growth inhibition of O=C1SS(=O)c2ccccc21 (centres undefined) noted as 5

Lab book: growth inhibition of O=C(Cc1ccccc1)NNc1nc(NNC(=O)c2ccncc2)nc(Nc2ccc([N+](=O)[O-])cc2)n1 noted as 10

Lab book: growth inhibition of O=C(Nn1c(-c2ccccc2)nc2ccccc2c1=O)c1ccc(CS)cc1 noted as 6

Lab book: growth inhibition of CC1=CC(=C(c2ccc(N)c(C)c2)c2ccc(N)c(C)c2)C=CC1=N noted as 17

Lab book: growth inhibition of CNC(=O)OCc1c2ccncc2c(C)c2c1[nH]c1ccccc12 noted as 17

Lab book: growth inhibition of Cc1ccc(Nc2n[nH]c(=S)s2)c(C)c1 noted as -33

Lab book: growth inhibition of CCCCCCCN(CCCCCCC)CC(=O)c1ccc2cc(Cl)c3ccccc3c2c1 noted as 0

Lab book: growth inhibition of CC1=NN(C(=O)c2ccccc2O)C(=O)/C1=C/c1ccco1 noted as 45

Lab book: growth inhibition of CCN(CC)CCC(=O)Nc1ccc2sc3ccccc3c(=O)c2n1 noted as 66

Lab book: growth inhibition of CCCCCCCCCCCCCCN noted as 18

Lab book: growth inhibition of c1c[nH]c(CN2CCN(Cc3ncc[nH]3)CC2)n1 noted as 3

Lab book: growth inhibition of O=S(=O)(NC1CCCC(c2ccccc2)C1)c1ccccc1 (centres undefined) noted as 1

Lab book: growth inhibition of O=C1Nc2ccc(Br)cc2C1=Nc1cccnc1 noted as -9

Lab book: growth inhibition of O=C(CCCN1CCC(Nc2ccc(F)cc2)(c2nnnn2C2CCCCC2)CC1)c1ccc(F)cc1 noted as 0

Lab book: growth inhibition of CC(=O)O/N=C1C=C/C(=C(/C#N)c2ccccc2)C=C/1C noted as 81

Lab book: growth inhibition of NCCCSc1ccccc1 noted as -1

Lab book: growth inhibition of COC(=O)c1cnc(Cl)c([N+](=O)[O-])c1 noted as 48

Lab book: growth inhibition of Oc1ccc(C2(c3ccc(O)cc3)CCCC2)cc1 noted as -50

* * *

assay: NCI Yeast Anticancer Drug Screen. Data for the mgt1 strain (AID 153); conditions: S. cerevisiae mgt1 mutant growth inhibition; at 3.7 µM; hits give high values
This is part of a sample that, as a whole, favours compounds with a hit. Of some 79,000 tested, about 15% had one in any assay.
value-kind: growth inhibition (%)
Give the number; % is assumed, so skip it.

Lab book: growth inhibition of Cc1c(C(=O)/C=C/c2ccccc2[N+](=O)[O-])[n+](=O)c2ccccc2n1[O-] noted as 61

Lab book: growth inhibition of Oc1c2c(c(O)c3ccccc13)C1(N=N2)c2ccccc2Oc2ccccc21 noted as 47

Lab book: growth inhibition of COc1ccc2nc(CCc3ccccc3)ccc2c1 noted as -7

Lab book: growth inhibition of CCN(CC)CCNc1ccc2nc(C)n3c4ccc(OC)cc4c(=O)c1c23 noted as 27

Lab book: growth inhibition of CCOc1ccc2nc3ccccc3c(N)c2c1 noted as 9

Lab book: growth inhibition of O=Cc1ccccc1C=O noted as 9

Lab book: growth inhibition of CN(C)CCNc1ccc2ncn3c4ccc(O)cc4c(=O)c1c23 noted as 7

Lab book: growth inhibition of NC(=S)N1N=C2c3ccccc3CC[C@@H]2[C@@H]1c1ccccc1 noted as -29

Lab book: growth inhibition of CCN1CCC(O)(c2ccc(Oc3ccc(C)cc3)cc2)C(C(=O)c2ccc(Oc3ccc(C)cc3)cc2)C1 (stereo unspecified) noted as 6

Lab book: growth inhibition of O=[N+]([O-])c1cccc2nc3ccccc3c(NCCCN3CCCCC3)c12 noted as 45

Lab book: growth inhibition of COc1ccc(C(C)c2cc3c(cc2OCC(C)=O)OCO3)cc1 (stereo unspecified) noted as -2

Data origin: PubChem BioAssay (NCI)
